The values you see were collected from PubChem BioAssay (NCI).

System: DMS 273 small cell lung
Experiment: NCI tumour cell line growth inhibition, 48 h
RECORDED METRIC: TGI

Here's what some known entries look like.
q: Find the recorded TGI belonging to Cc1cc(Cl)ccc1N1C(=O)C(=O)C(c2nc3ccccc3o2)C(=O)C1=O and report it.
a: > 100 µM

q: Bench note: what TGI did Cc1nc2ccccc2c(=O)n1/N=C(\N=Nc1ccccc1Cl)c1ccccc1 show?
a: > 100 µM

q: Given CC(=O)OC1CC2C(C)(C)OC(=O)CC(OC(C)=O)[C@]2(C)C2CCC3(C)C(=CCC3c3ccoc3)[C@]12C (stereo partly specified) , state its recorded TGI.
a: 41.1 µM

New cases:
q: Would you mind telling me what TGI value was observed for C=CCN(N=O)C(=O)N(CCCCC(NC(C)=O)C(=O)NCc1ccccc1)Cc1ccccc1 (stereo unspecified) ?
a: > 100 µM

q: What value of TGI has been reported for the following compound? CC(=O)OCC1OC(n2c(=S)n(-c3ccccc3)c(=O)c3cc(Br)ccc32)C(OC(C)=O)C(OC(C)=O)C1OC(C)=O (stereo unspecified)
a: > 100 µM

q: Could you tell me which TGI is on file for COc1ccc(C(=O)C/C(=N/NC(N)=S)C(=O)Nc2ccccc2)cc1 ?
a: > 100 µM

q: Which measured TGI value corresponds to O=[N+]([O-])c1cc(Cl)ccc1S(=O)(=O)c1ccc(Cl)cc1[N+](=O)[O-] ?
a: 27.2 µM

q: Requested field: TGI. Item: C=C[Si](C)(C)COC(=O)/C(C#N)=C/C=C/c1ccccc1
a: > 100 µM

---

Test system: PC-3 prostate
Assay: NCI tumour cell line growth inhibition, 48 h
Recorded GI50 by entry

Check out these entries, answers already filled in.
q: Reported GI50 for PC-3 prostate, given COc1ccc(Nc2ncc(-c3ccccc3)o2)cc1OC ?
a: 17.6 µM

q: Any idea what GI50 came out for CC(=O)OC1CC2(O)C(CCC3(C)C(c4ccc(=O)oc4)CCC32O)C2(C)CCC(OC3OC(CO)C(O)C(O)C3O)C=C12 (stereo not given) on PC-3 prostate?
a: 0.0248 µM

q: Field: GI50 (PC-3 prostate). Entry: C=C(CN(C)Cc1ccccc1)c1ccc(C(=O)Nc2ccccc2N)cc1
a: 4.95 µM

q: Write down the reported GI50 of CCCC(CCC)Oc1ccc(CCCC2=C(O)c3ccccc3C(=O)C2=O)cc1 , test system: PC-3 prostate.
a: 3 µM

Alright, here's another compound for you.
q: What value of GI50 on PC-3 prostate does CCOc1ccc(NC(=O)c2cc3ccccc3cc2O)cc1 have?
a: > 100 µM

---

Item-by-item account of TGI
Tested on: UACC-62 melanoma
Assay: NCI tumour cell line growth inhibition, 48 h

q: What does the record list as TGI for COc1cccc(N2C(=O)C3c4[nH]c5ccc(C)cc5c4C4CCC(C)CC4C3C2=O)c1 (stereo not given) ?
a: > 100 µM

q: Endpoint output: TGI of O=c1[nH]c2cc3[nH]c(=O)c(=O)[nH]c3cc2[nH]c1=O . Value?
a: > 100 µM

q: Data request, read-out TGI, for COc1ccc2cc(/C=N\NC(=O)Nc3ccc([N+](=O)[O-])cc3)ccc2c1
a: 19.2 µM

q: So what does the record say about TGI for COc1ccc(-c2cc(=O)c3ccc(F)cc3[nH]2)cc1 ?
a: > 100 µM

q: Report TGI for CC(=O)c1sc2n(C)c(=O)c3ccccc3[n+]2c1C please.
a: > 100 µM
